test: Zeta-potential measurement; assay type: physicochemical; conditions: mean, Figure 7B
Mark Y for reported Zeta-Potential / mV of -5 mV or greater; mark N for anything smaller.

Check out these entries, answers already filled in.
substance	discreteLabel
LANWMCLAKW [reference compound]	Y
VQIVYK [reference compound]	Y
RQGNINIVA [reference compound]	Y

Identify whether the reported Zeta-Potential / mV of the following substance is -5 mV or greater: NKGAII [reference compound]
N

Identify whether the reported Zeta-Potential / mV of the following substance is -5 mV or greater: ISKLEYSNFSVRY [reference compound]
Y

Identify whether the reported Zeta-Potential / mV of the following substance is -5 mV or greater: IIIQGK [reference compound]
N

###

tested on: HIV-1 infection of TZM-bl cells; assay: HIV-1 infectivity enhancement assay, β-galactosidase luminescence; format: cell-based; conditions: Feb2021 run; infectivity n-fold relative to virus alone
# n-fold to virus (Feb2021) per entry
Format: numeric value only, no unit, no commentary.

Reference set, count: 2
substance	systemName	n-fold to virus (Feb2021)
KIKIQINMWQ [JG1]	HIV-1 infection of TZM-bl cells	12.47
KIKIKIKIWWWW [TM12]	HIV-1 infection of TZM-bl cells	24.74

Return the recorded n-fold to virus (Feb2021) value; entry: MKIKIQINMWQ [TM52]
17.6

Return the recorded n-fold to virus (Feb2021) value; entry: KFKFQFNMW [BL5 / KB13]
18.76

Return the recorded n-fold to virus (Feb2021) value; entry: QCKIKQII [CK6]
0.2719

Return the recorded n-fold to virus (Feb2021) value; entry: CKIKIQINM [MG2]
66.78

Return the recorded n-fold to virus (Feb2021) value; entry: CKAKAQANMWQ [BL8]
1.837

Return the recorded n-fold to virus (Feb2021) value; entry: QCKAKAQA [CK24]
1.061

Return the recorded n-fold to virus (Feb2021) value; entry: KFKFQFNM [BL6a]
19.81

Return the recorded n-fold to virus (Feb2021) value; entry: KIKIQI [JJA4]
2.845

Return the recorded n-fold to virus (Feb2021) value; entry: KIKIQIW [TM69]
5.89

Return the recorded n-fold to virus (Feb2021) value; entry: QCKFKQFFNMWQ [CK10]
6.098

Return the recorded n-fold to virus (Feb2021) value; entry: QCKFKQFF [CK12]
0.5204

Return the recorded n-fold to virus (Feb2021) value; entry: RGDKIKIQINMC [psis29]
44.93

Return the recorded n-fold to virus (Feb2021) value; entry: KFKFQF [JJA6]
2.575

Return the recorded n-fold to virus (Feb2021) value; entry: CKIKQIINMWQ [MG5a / CK17]
52.27

Return the recorded n-fold to virus (Feb2021) value; entry: RGDKIKIQINM [MG8a / CN17]
17.36

###

type: physicochemical; conditions: n-fold ThT fluorescence vs control (PBS, 10% DMSO); 4 µL 1 mg/mL fibrils + 20 µL 50 µM ThT, 15 min RT, ex 440 / em 488 nm, triplicate
observable: Rel. ThT
Format: numeric value only, no unit, no commentary.

substance	Rel. ThT
KIKIQINMWQRGD	1.5
QCKAKAQANMWQ	1.5
CKAKAQANM	1.2
KAKAQANM	1.1

Return the recorded Rel. ThT value; entry: KFKFQFN
1.1

Return the recorded Rel. ThT value; entry: QCKAKAQANM
1.4

Return the recorded Rel. ThT value; entry: CKAKAQANMWQ
1.9

Return the recorded Rel. ThT value; entry: KAKAQANMWQ
1

###

experiment: Aggregate analysis by widefield fluorescence microscopy; format: physicochemical; conditions: Fig S8 panels A, C
# log Median Area in 3 * ( (1330 µm *1330 µm)) per entry
Format: numeric value only, no unit, no commentary.

Reference set, count: 5
substance	reading
KIKIQIN [JGB3]	2.296
CKIKQIINMWQ [MG5a / CK17]	1.963
CKWKWQW [KB4]	1.469
HIHIQIC [CN12]	1.934
KIKQIINMWQ [JG2]	2.3

Return the recorded log Median Area in 3 * ( (1330 µm *1330 µm)) value; entry: RGDSGGGGGGKIKIQIC [TM114 / RC17]
1.725

###

test: Conversion rate (CR) assay with fluorescamine; type: physicochemical; details: fluorescamine assay
observable: Conversion Rate / % (%)
API: value field is a number in %; no unit string.

Reference set, count: 3
substance	Conversion Rate / % / %
QCKIKIQINM [CK2]	89.7
QCKFKQFFNMWQ [CK10]	98.72
CKAKAQANM [BL9]	57.73

Return the recorded Conversion Rate / % value; entry: CKFKQFF [CK15]
90.05

Return the recorded Conversion Rate / % value; entry: QCKAKAQANMWQ [CK22]
89.28

Return the recorded Conversion Rate / % value; entry: QCKFKFQFNMWQ [CK7]
98.91

Return the recorded Conversion Rate / % value; entry: RLRLTLC [CN13]
87.44

Return the recorded Conversion Rate / % value; entry: CSISIQI [TM141]
76.63

Return the recorded Conversion Rate / % value; entry: CKFKFQFNMWQ [BL2]
99.03

###

test: Zeta-potential measurement; assay type: physicochemical; conditions: zeta-potential of the peptide assemblies; mean; Figure 3A source data
Mark Satisfied for reported Zeta-Potential / mV of 9 mV or greater; mark Not satisfied for anything smaller.

Check out these entries, answers already filled in.
substance	discreteLabel
QCKAKAQA	Not satisfied
KFKFQFNMWQ	Satisfied
KIKIQINMWWWQ	Satisfied

Identify whether the reported Zeta-Potential / mV of the following substance is 9 mV or greater: CKFKFQFNMW
Satisfied

Identify whether the reported Zeta-Potential / mV of the following substance is 9 mV or greater: RGDKIRGDKI
Not satisfied

Identify whether the reported Zeta-Potential / mV of the following substance is 9 mV or greater: KKFQKKFQ
Not satisfied

Identify whether the reported Zeta-Potential / mV of the following substance is 9 mV or greater: KYKGAIIGNIK
Not satisfied

Identify whether the reported Zeta-Potential / mV of the following substance is 9 mV or greater: KIKIKIKIWWWW
Satisfied

Identify whether the reported Zeta-Potential / mV of the following substance is 9 mV or greater: CEFEFQF
Not satisfied

Identify whether the reported Zeta-Potential / mV of the following substance is 9 mV or greater: KIKIKIKIYYYY
Satisfied

###

system: HIV-1 infection of TZM-bl cells; assay: HIV-1 infectivity enhancement assay, β-galactosidase luminescence; format: cell-based; details: log10 of HIV-1 infection of TZM-bl cells relative to EF-C; Fig S15 source data; asymmetric std dev errors
# Log10 Inf. rel. to EF-C per entry
Format: numeric value only, no unit, no commentary.

Reference set, count: 10
substance	systemName	Log10 Inf. rel. to EF-C
KLKQLL [KM27 / psis14]	HIV-1 infection of TZM-bl cells	-2.131
CKFKFQFNM [BL3]	HIV-1 infection of TZM-bl cells	0.09417
CKWKWQW [KB4]	HIV-1 infection of TZM-bl cells	-0.5951
QCKIKQIINMWQ [reference compound]	HIV-1 infection of TZM-bl cells	0
RGDKIKIQINMC [psis29]	HIV-1 infection of TZM-bl cells	0.02911
KIKIQIRGD [MG6]	HIV-1 infection of TZM-bl cells	-1.678
KIKQIINMWQ [JG2]	HIV-1 infection of TZM-bl cells	-0.4604
CSISIQINM [TM145]	HIV-1 infection of TZM-bl cells	-0.7027
RLRLTLC [CN13]	HIV-1 infection of TZM-bl cells	-1.288
KFKFEFEF [MGe01]	HIV-1 infection of TZM-bl cells	-1.547

Return the recorded Log10 Inf. rel. to EF-C value; entry: KIKIQII [TG1 / (KM4)]
-1.729

Return the recorded Log10 Inf. rel. to EF-C value; entry: KIKIKIQINMWQ [VH9]
-0.1048

Return the recorded Log10 Inf. rel. to EF-C value; entry: KYKGAIIGNIK [CN19]
-2.508

Return the recorded Log10 Inf. rel. to EF-C value; entry: QCKAKAQA [CK24]
-1.598

Return the recorded Log10 Inf. rel. to EF-C value; entry: CKIKQIINM [BL1]
-0.3035

Return the recorded Log10 Inf. rel. to EF-C value; entry: KFKFKFQF [TG18]
-0.09726

Return the recorded Log10 Inf. rel. to EF-C value; entry: RGDKIKIQINMWQ [MG9a]
-0.1175

Return the recorded Log10 Inf. rel. to EF-C value; entry: ILKNLSRSRKIKIQINMWQ [TM92]
-0.4939

Return the recorded Log10 Inf. rel. to EF-C value; entry: KIKIQIMWNQ [VH15]
-0.2495

Return the recorded Log10 Inf. rel. to EF-C value; entry: CKIKIQINMW [TM86]
0.1122

Return the recorded Log10 Inf. rel. to EF-C value; entry: QCKFKQFFNM [CK11]
-0.3706

Return the recorded Log10 Inf. rel. to EF-C value; entry: FDPFDPFDP [CN24]
-1.6317

Return the recorded Log10 Inf. rel. to EF-C value; entry: KVKVQVV [TG2]
-2.04

Return the recorded Log10 Inf. rel. to EF-C value; entry: KIKIKIQI [TG13]
-1.014

Return the recorded Log10 Inf. rel. to EF-C value; entry: CSISIQI [TM141]
-1.252

Return the recorded Log10 Inf. rel. to EF-C value; entry: NMWQKIKQII [JG8]
-1.5971
